biological target: T1, cynomolgus monkey CD8 alpha on primary cynomolgus CD8+ T cells (cynomolgus monkey, UniProt P01732 23-235 (human entry)); assay: flow cytometry, cyno CD8+ T cells
T1 construct: also called Cyno CD8alpha; cyno CD8A
T1 sequence (P01732 other isoform, or with tags, fused parts or gaps limits assumed): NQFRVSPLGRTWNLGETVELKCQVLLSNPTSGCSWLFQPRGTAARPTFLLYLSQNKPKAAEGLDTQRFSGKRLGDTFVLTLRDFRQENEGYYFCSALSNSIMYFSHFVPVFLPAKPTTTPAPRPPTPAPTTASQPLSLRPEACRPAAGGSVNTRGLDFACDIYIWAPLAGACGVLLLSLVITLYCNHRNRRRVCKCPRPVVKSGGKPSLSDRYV
Readout: Cyno T-cell Binding 2 uM (MFI)
Answer format: numeric, MFI implied, no suffix.

Dear colleague, I am looking for the recorded Cyno T-cell Binding 2 uM (MFI) of the following binder: P283FR9P1366_C2 (designed binder, FN3 domain) LPAPKNLVVSRVTEDSARLSWTAPDAAFDSFKISYPEWPPEGEAIVLTVPGSERSYDLTGLKPGTEYAVFIWCVKGGEHSWPLSAIFTT
89200

Same read-out for P283GR7P1367_F5 (designed binder, FN3 domain) LPAPKNLVVSRVTEDSARLSWTAPDAAFDSFDIAYPEWPTDGEAIVLTVPGSERSYDLTGLKPGTEYFVIIYGVKGGALSRPLSAIFTT ?
29000

Same read-out for P283BR9P1363_G2 (designed binder, FN3 domain) LPAPKNLVVSRVTEDSARLSWPKNQTNRHFDSFLIQYQESEKVGEAIVLTVPGSERSYDLTGLKPGTEYTVSIYGVDVKWEGNRPVASNPLSAIFTT ?
15900

Reference source: patent US20210032312A1
